Every entry's value here was drawn from ChEMBL document CHEMBL3351640.

- method.description: Cytotoxicity against human HCT116 cells after 48 hrs by MTT assay
- Format: functional, cell-based
- condition.set: HCT-116, 48 h
assay.metric: IC50 (µM)
Express it in µM; write the number only.

Cc1ccc2nc(Cl)c(/C=N/n3cc(-c4cccs4)nc3N)cc2c1: 7.71

Kindly review the next molecule as well.
## Task Given the entry `Cc1ccc2nc(Cl)c(/C=N/n3cc(-c4cccc5ccccc45)nc3N)cc2c1` , report its measured IC50.
## Result 5.84

---

Listed molecules paired with reported pIC50
- method.description: Cytotoxicity against human HCT116 cells after 48 hrs by MTT assay
- Assay type: functional, cell-based
- condition.set: HCT-116, 48 h
Formally, pIC50 is defined as -log10 of the concentration c, with c in mol/L.

Cc1ccc2nc(Cl)c(/C=N/n3cc(-c4ccc5ccccc5c4)nc3N)cc2c1: 4.56

Please turn your attention to the following entry.
## Task Recorded pIC50 of `Nc1nc(-c2cccs2)cn1/N=C/c1cc2ccccc2nc1Cl` , please.
## Result 5.14

---

- System: HUVEC
- method.description: Cytotoxicity against HUVEC cells after 48 hrs by MTT assay
- Type: cell-based
- condition.set: Homo sapiens
assay.metric: IC50 (µM)
Your answer should be a plain number; it is taken to be in µM.

## Task // query IC50 value for entry `Cc1ccc2nc(Cl)c(/C=N/n3cc(-c4ccc(Cl)cc4)nc3N)cc2c1`
## Result 38.5

## Task For the compound `Cc1ccc2nc(Cl)c(/C=N/n3cc(-c4cccs4)nc3N)cc2c1` , what IC50 is on record?
## Result 38

## Task Tell me the measured IC50 of `Cc1ccc2nc(Cl)c(/C=N/n3cc(-c4ccc(Br)cc4)nc3N)cc2c1` , please.
## Result 13.4

## Task Consider the compound `Nc1nc(-c2ccc(Br)cc2)cn1/N=C/c1cc2ccccc2nc1Cl` and give its measured IC50.
## Result 11.9

## Task Record request: IC50 value, item `Nc1nc(-c2ccccc2)cn1/N=C/c1cc2ccccc2nc1Cl`
## Result 46.7

## Task Requested field: IC50. Item: `Nc1nc(-c2ccc3ccccc3c2)cn1/N=C/c1cc2ccccc2nc1Cl`
## Result 36.2

---

pIC50 overview
- method.description: Cytotoxicity against human HCT116 cells after 48 hrs by MTT assay
- Format: functional, cell-based
- condition.set: HCT-116, 48 h
In textbook form, pIC50 equals minus log to base ten of the concentration in mol/L.

Cc1ccc2nc(Cl)c(/C=N/n3cc(-c4ccc(Br)cc4)nc3N)cc2c1: 4.30

## Task Please give the measured pIC50 for this molecule: `Cc1ccc2nc(Cl)c(/C=N/n3cc(-c4ccccc4)nc3N)cc2c1`
## Result 5.15

## Task Reported pIC50, molecule `Nc1nc(-c2ccccc2)cn1/N=C/c1cc2ccccc2nc1Cl` : ____
## Result 5.16

## Task Item `Cc1ccc(-c2cn(/N=C/c3cc4cc(C)ccc4nc3Cl)c(N)n2)cc1` has what recorded pIC50?
## Result 4.40

## Task // returns reported pIC50 for input `COc1ccc(-c2cn(/N=C/c3cc4ccccc4nc3Cl)c(N)n2)cc1`
## Result 4.50

## Task Look up pIC50 for this molecule: `Nc1nc(-c2cccc3ccccc23)cn1/N=C/c1cc2ccccc2nc1Cl`
## Result 5.20

## Task State the recorded pIC50 for this entry: COc1cccc2c1C(=O)c1c(O)c3c(c(O)c1C2=O)C[C@@](O)(C(=O)CO)C[C@@H]3O[C@H]1C[C@H](N)[C@H](O)[C@H](C)O1 [DOXORUBICIN]
## Result 6.47
